procedure-text: qHTS to identify inhibitors of the type 1 interferon - major histocompatibility complex class I in skeletal muscle: primary screen against the NCATS Mechanism Interrogation Plate v5.0 (MIPE) Libary (AID 1347411); also: nearly all actives have a fitted effect of over 65% in size; also: potency is read from the fitted curve at half-maximal effect
assay-context: iHSKM cells + IFN-b, HiBiT-tagged MHC-I luminescence, 24 h; series mostly up to 45.8 µM
Inconclusive results are not listed. Activity calls are given as the source filed them. Calls follow the shape of the dose curve; as a rule, active = well fitted inhibition curve with a large enough effect; inconclusive = small, poorly fitted or top-dose-only effect; inactive = no such curve, though single readings can be large or run the other way.
experimental-readout: Potency

Example molecules with recorded Potency:
molecule: COc1cc(O)c2c(c1)C1OC1C[C@H](O)[C@H](O)C(=O)C=CC[C@H](C)OC2=O (stereo partly specified)
test-result: 13.1 µM (active)
//
molecule: CCCCCCCCCCCC(CC1OC(=O)C1CCCCCC)OC(=O)C(CC(C)C)NC=O (stereo unspecified)
test-result: inactive
//
molecule: Oc1cc(-c2nc(-c3ccccc3)[nH]c2-c2ccncc2)ccc1Cl
test-result: 16.5 µM (active)
//
molecule: CCCCCCCN(CC)CCCC(O)c1ccc(NS(C)(=O)=O)cc1 (stereo unspecified)
test-result: inactive
//
molecule: CC(Oc1ccc(O)cc1)(P(=O)(O)O)P(=O)(O)O
test-result: inactive
//
molecule: CC(=O)SCC(Cc1ccccc1)C(=O)NCC(=O)OCc1ccccc1 (stereo unspecified)
test-result: inactive

# batch size: 8; output Potency per entry
1. C=CC(=O)Nc1ccc2ncnc(Nc3ccc(OCc4cccc(F)c4)c(Cl)c3)c2c1
2. O=C(O)c1ccc(Nc2ncc3c(n2)-c2ccc(Cl)cc2C(c2c(F)cccc2F)=NC3)cc1
3. C#CCC(Cc1cnc2nc(N)nc(N)c2n1)c1ccc(C(=O)N[C@@H](CCC(=O)O)C(=O)O)cc1 (stereo partly specified)
4. CC(Cc1ccc(O)c(O)c1)(NN)C(=O)O (stereo unspecified)
5. c1ccc(CNc2nc(NCc3ccccc3)c3ccccc3n2)cc1
6. O=S(=O)(O)CCSSCCS(=O)(=O)O
7. CC(C)[C@H](CO)Nc1nc(Nc2cccc(Cl)c2)c2ncn(C(C)C)c2n1
8. COc1cc(OC)c(NC(=O)Nc2cc(C)on2)cc1Cl

*A*
1. 10.4 µM (active)
2. inactive
3. inactive
4. inactive
5. 26.2 µM (active)
6. inactive
7. 16.5 µM (active)
8. inactive

----------
Test system: CP215
procedure-text: qHTS profiling for inhibitors of Plasmodium falciparum proliferation (AID 504749); also: nearly all actives have a fitted effect of over 60% in size
assay-context: P. falciparum in erythrocytes, SYBR Green DNA, 72 h; series mostly up to 28.7 µM
Records with an inconclusive call do not appear. Active and inactive are the calls of the source. The call rests on the fitted dose curve; in most records, active means well fitted inhibition curve with a large enough effect; inconclusive means small, poorly fitted or top-dose-only effect; inactive means flat fitted curve, though single readings scatter.
Response enum: TRUE = active, FALSE = inactive

Some entries whose results are on file:
compound: CCC(C(=O)O)C1CCC(C)C(C(C)C(O)C(C)C(=O)C(CC)C2OC3(C=CC(O)[C@@]4(CC[C@](C)(C5CC[C@@](O)(CC)C(C)O5)O4)O3)C(C)CC2C)O1 (stereo partly specified)
class-label: TRUE
--
compound: COc1cccc2c1C(=O)c1c(O)c3c(c(O)c1C2=O)C[C@@](O)(C(=O)CO)C[C@@H]3O[C@H]1C[C@H](N)[C@H](OC2CCCCO2)[C@H](C)O1 (stereo partly specified)
class-label: TRUE
--
compound: Nc1nc2c(c(=O)[nH]1)N(C=O)[C@H](CNc1ccc(C(=O)N[C@@H](CCC(=O)O)C(=O)O)cc1)CN2
class-label: FALSE
--
compound: COc1ccc2c(c1OC)C(=O)OC2[C@H]1c2c(cc3c(c2OC)OCO3)CCN1C (stereo partly specified)
class-label: FALSE
--
compound: COc1ccc([C@@H]2CNC(=O)C2)cc1OC1CCCC1
class-label: FALSE

# ---- query compound ----
*Q* Recorded test outcome, item OCC(O)C(O)C(O)CO (stereo unspecified)
*A* FALSE

----------
procedure-text: Quantitative High-Throughput drug screen in 47 multiple myeloma cell lines against the NCATS MIPE library collection: XG1_PLB cell viability assay (AID 1919866); also: nearly all actives have a fitted effect of over 35% in size
assay-context: CellTiter-Glo ATP, 48 h; series mostly up to 45.8 µM
Results filed as inconclusive are left out. The source made the active and inactive calls. The call rests on the fitted dose curve; in most records, active means well fitted cell-killing curve with a large enough effect; inconclusive means small, poorly fitted or top-dose-only effect, or effect the other way; inactive means no such curve, though single readings can be large or run the other way.
Response enum: active, inactive

compound: C=CC(=O)Nc1cc(NC(=O)c2ccc(C)c(NC(=O)c3ccno3)c2)cc(C(F)(F)F)c1
class-label: active
--
compound: CCN(CC)CCNC(=O)c1c(C)[nH]c(C=C2C(=O)Nc3ccc(F)cc32)c1C
class-label: active
--
compound: Cc1cnc(Nc2ccc(N3CCN(C)CC3)cc2)nc1Nc1cccc(S(=O)(=O)NC(C)(C)C)c1
class-label: active

*Q* Recorded test outcome, item CCOC(=O)C1=C(C)NC(=S)NC1c1cccc(O)c1 (centres undefined)
*A* active

*Q* Recorded test outcome, item CC(C)(O)CC[C@@H](O)[C@](C)(O)[C@H]1CC[C@@]2(O)C3=CC(=O)[C@@H]4C[C@@H](O)[C@@H](O)C[C@]4(C)[C@@H]3CC[C@]12C
*A* inactive

----------
Test system: UISO
procedure-text: qHTS assay to identify novel small-molecules to repurpose for Merkel cell carcinoma treatment (AID 1296009); also: nearly all actives have a fitted effect of over 60% in size
assay-context: MCC and control cell lines, CellTiter-Glo viability, 72 h; series mostly up to 46 µM
Results filed as inconclusive are left out. The source made the active and inactive calls. Calls come from the whole dose curve; as a rule, active = well fitted inhibition curve with a large enough effect; inconclusive = small, poorly fitted or top-dose-only effect; inactive = flat fitted curve, though single readings scatter.
Response enum: active, inactive

Some entries whose results are on file:
molecule: CC1(C)CC(O)CC(C)(C)N1[O]
class-label: inactive
//
molecule: O=S(=O)(O)CCSSCCS(=O)(=O)O
class-label: inactive

*Q* Recorded test outcome, item CCCCCCCCCCCCCCCC(=O)OC[C@@H](NC(=O)C(Cl)Cl)[C@H](O)c1ccc([N+](=O)[O-])cc1
*A* inactive

*Q* Recorded test outcome, item Nc1nc2c(c(=O)[nH]1)N(C=O)[C@H](CNc1ccc(C(=O)N[C@@H](CCC(=O)O)C(=O)O)cc1)CN2
*A* inactive

----------
procedure-text: Quantitative High-Throughput drug screen in 47 multiple myeloma cell lines against the NCATS MIPE library collection: ARD_JJKsccE7 cell viability assay (AID 1918929)
assay-context: ARD myeloma cell line viability, CellTiter-Glo, 48 h; series mostly up to 45.8 µM
Source text: PI: Beverly A. Mock Ph.D. Laboratory of Cancer Biology and Genetics, Center for Cancer Research, National Cancer Institute, National Institute of Health, Bethesda, Maryland […] 5; Detector; 425V; Luminescence; Viewlux PerkinElmer. […] 1. […] Briefly, the corresponding myeloma cell lines were screened in 1,536-well plates with 500 cells, 5-uL per well for inhibition of cell viability (assessed by measuring ATP levels with CellTiterGlo). […]
Inconclusive results are not listed. Activity calls are given as the source filed them. The call rests on the fitted dose curve; in most records, active means well fitted cell-killing curve with a large enough effect; inconclusive means small, poorly fitted or top-dose-only effect, or effect the other way; inactive means no such curve, though single readings can be large or run the other way.
Response enum: active, inactive

Some entries whose results are on file:
compound: CCOC(=O)N1CCN([N+]([O-])=NOc2ccc([N+](=O)[O-])cc2[N+](=O)[O-])CC1
class-label: active
--
compound: CCOC(=O)C1=C(C)NC(=S)NC1c1cccc(O)c1 (stereo not given)
class-label: active
--
compound: O=C(CCCCCCC(=O)Nc1cccnc1)NO
class-label: active
--
compound: Cn1cnc(=N)c2[nH]cnc21
class-label: active
--
compound: C[C@H](NC(=O)C(C#N)=Cc1cccc(Br)n1)c1ccccc1
class-label: active

*Q* Recorded test outcome, item CCOC(=O)[C@H](CCc1ccccc1)N[C@@H](C)C(=O)N1[C@@H](C(=O)O)C[C@H]2CCC[C@@H]21
*A* active

*Q* Recorded test outcome, item O=C(C=CC#Cc1cccc(NS(=O)(=O)c2ccccc2)c1)NO
*A* active

*Q* Recorded test outcome, item Cc1onc(-c2ccccc2)c1C(=O)N[C@@H]1C(=O)N2[C@@H](C(=O)O)C(C)(C)S[C@@H]12
*A* inactive

*Q* Recorded test outcome, item CC(C)(O)Cn1c(NC(=O)c2ccc(-c3cn[nH]c3)s2)nc2cc(CN3CCOCC3)ccc21
*A* active

*Q* Recorded test outcome, item Cn1cc(-c2ccc3ncc(Cc4ccc5ncccc5c4)n3n2)cn1
*A* inactive

----------
procedure-text: NS1 protein of Zika virus - qHTS assay to identify small molecule inhibitors in human HEK 293 cells (AID 1347053); also: nearly all actives have a fitted effect of over 55% in size; also: potency is read from the fitted curve at half-maximal effect
assay-context: HEK293 ZIKV MR766 infection, NS1 TR-FRET, 24 h; series mostly up to 46.1 µM
Results filed as inconclusive are left out. Calls of active or inactive are those of the source. Calls follow the shape of the dose curve; as a rule, active = well fitted inhibition curve with a large enough effect; inconclusive = small, poorly fitted or top-dose-only effect; inactive = no such curve, though single readings can be large or run the other way. Starred links: 1 amine or outer side, 2 acyl side, 3 side chain; linkers in the order of their positions; H or OH if unused. Positions of bridges follow the written chain, without caps; N, C: chain ends. Non-standard residues stand in square brackets, D forms with d. Residues, ends and D or L forms follow the SMILES beside them. Chains are numbered I, II in the order given. Actinocin(9to1) = Cc1c2oc3c(C)ccc(C(=O)[*:1])c3nc-2c(C(=O)[*:2])c(N)c1=O; NMeV = CN[CH](C(=O)O)C(C)C; Sar = CNCC(=O)O
experimental-readout: Potency

Example compounds with recorded Potency:
compound: CC(C)Oc1ccc(C(=O)N[C@H](CNC(=O)CN(C)C)Cc2ccc(-c3cn4cccc([C@H](C)O)c4n3)cc2)cc1Cl
Potency: 20.9 µM (active)

compound: CC1(C)CC(O)CC(C)(C)N1[O]
Potency: inactive

compound: O=C(NC1CC1)c1cccc(-c2ccc3c(NC(=O)C4CC4)n[nH]c3c2)c1
Potency: inactive

compound: O=C(C=CC#Cc1cccc(NS(=O)(=O)c2ccccc2)c1)NO
Potency: 13.2 µM (active)

compound: O=c1c(O)c(-c2ccc(O)c(O)c2)oc2cc(O)ccc12
Potency: inactive

# batch size: 3; output Potency per entry
1. CN(C)CCN1C(=O)c2cccc3cc(N)cc(c23)C1=O
2. N#CC(=Cc1ccc(O)c(O)c1)C(=O)NCc1ccccc1
3. COc1cccc2c1C(=O)c1c(O)c3c(c(O)c1C2=O)C[C@@](O)(C(=O)CO)C[C@@H]3O[C@H]1C[C@H](N)[C@@H](O)[C@H](C)O1

*A*
1. inactive
2. inactive
3. 0.296 µM (active)

# batch size: 8; output Potency per entry
1. COC(=O)[C@H](CCCN=C(N)N)NS(=O)(=O)c1ccc(C)cc1
2. OC[C@@H](O)[C@@H](O)[C@H](O)[C@@H](O)CO
3. C=CC(=O)N1CCc2ccc(-n3c(=O)ccc4cnc5ccc(-c6cnn(C)c6)cc5c43)cc21
4. Cc1noc(-c2ccc(CSCCC(=O)O)cc2)c1NC(=O)OC(C)c1ccccc1Cl (stereo not given)
5. O=C1NC(=O)[C@@H](c2cn3c4c(cccc24)CCC3)[C@H]1c1c[nH]c2ccccc12
6. CC(=O)O[C@]1(C(C)=O)CC[C@H]2[C@@H]3C=C(C)C4=CC(=O)CC[C@]4(C)[C@@H]3CC[C@@]21C
7. CN1[C@H]2CC(OC(=O)[C@@H](CO)c3ccccc3)C[C@H]1[C@H]1O[C@H]12 (stereo not given in full)
8. O=C(O)CCCCC(CCSCc1ccccc1)SCc1ccccc1 (stereo not given)

*A*
inactive
inactive
2.96 µM (active)
inactive
6.62 µM (active)
inactive
inactive
inactive

# batch size: 5; output Potency per entry
1. COC[C@H](NC(=O)c1cnc(C)s1)C(=O)N[C@@H](COC)C(=O)N[C@@H](Cc1ccccc1)C(=O)[C@@]1(C)CO1
2. C#C[C@]1(O)CC[C@@H]2[C@@H]3CCC4=CC(=O)CC[C@@H]4[C@H]3CC[C@@]21CC
3. Cc1c2oc3c(C)ccc(C(=O)NC4C(=O)NC(C(C)C)C(=O)N5CCCC5C(=O)N(C)CC(=O)N(C)C(C(C)C)C(=O)OC4C)c3nc-2c(C(=O)NC2C(=O)NC(C(C)C)C(=O)N3CCCC3C(=O)N(C)CC(=O)N(C)C(C(C)C)C(=O)OC2C)c(N)c1=O (stereo not given) (I: TVP[Sar][NMeV] / II: TVP[Sar][NMeV]; ester I:1-I:C, II:1-II:C; linker I:N-II:N via Actinocin(9to1); configuration not given here)
4. CC(C)N1[N]C(=C2C=c3cc(O)ccc3=N2)c2c(N)ncnc21
5. CCCCCCCCCCCCc1ccc(S(=O)(=O)Nc2nncs2)cc1

*A*
1.18 µM (active)
inactive
7.43 µM (active)
4.69 µM (active)
inactive

# batch size: 6; output Potency per entry
1. COC(=O)C1C2CC3c4[nH]c5cc(OC)ccc5c4CCN3CC2CC(OC(=O)c2cc(OC)c(OC)c(OC)c2)C1OC (stereo not given)
2. CC(N[C@H]1CCCC[C@H]1NC(=O)c1ccc(Cl)cc1)c1cccc2ccccc12 (stereo not given in full)
3. Cc1cnc(Nc2ccc(N3CCN(C)CC3)cc2)nc1Nc1cccc(S(=O)(=O)NC(C)(C)C)c1
4. O=C(O)CCCCCC(=O)NN=C1CCCC1
5. C#CCC(Cc1cnc2nc(N)nc(N)c2n1)c1ccc(C(=O)N[C@@H](CCC(=O)O)C(=O)O)cc1 (stereo not given in full)
6. Cc1coc2c1C(=O)C(=O)c1c-2ccc2c(C)cccc12

*A*
["inactive", "inactive", "16.6 µM (active)", "inactive", "0.132 µM (active)", "inactive"]
